- Test system: P. aeruginosa ATCC 27853
- protocol: Neutropenic mouse bloodstream infection model
- Format: in vivo
- run.conditions: single IV dose 4 mg/kg, 4 h, treated minus control, mean of replicates; 4 mg/kg
Residues, ends and D or L forms follow the SMILES beside them.
endpoint.label: Δlog10 CFU/mL blood (mean) (log10 CFU/mL blood)

molecule: CCCCCCCC(=O)N[C@@H](CCN)C(=O)N[C@H](C(=O)N[C@@H](CCN)C(=O)N[C@H]1CCNC(=O)[C@H]([C@@H](C)O)NC(=O)[C@H](CCN)NC(=O)[C@H](CCN)NC(=O)[C@H]([C@@H](C)O)NC(=O)[C@@H](Cc2ccccc2)NC(=O)[C@H](CCN)NC1=O)[C@@H](C)O [Lipopeptide F224] (HELM PEPTIDE1{[CCCCCCCC(=O)[*:2]].[Dab].T.[Dab].[Dab].[Dab].[dF].T.[Dab].[Dab].T}$PEPTIDE1,PEPTIDE1,5:R3-11:R2$$$V2.0)
experimental.target: P. aeruginosa ATCC 27853
endpoint.label: Δlog10 CFU/mL blood (mean)
recorded.measurement: −3.38

---

- Test system: K. pneumoniae FADDI-KP032
- Type: cell-based, Klebsiella pneumoniae
- run.conditions: FADDI-KP032
Residues, ends and D or L forms follow the SMILES beside them.
Each entry below carries its recorded MIC K. pneumoniae FADDI-KP032.

molecule: CCCCCCCC(=O)N[C@@H](CCN)C(=O)N[C@H](C(=O)N[C@@H](CN)C(=O)N[C@H]1CCNC(=O)[C@H]([C@@H](C)O)NC(=O)[C@H](CCN)NC(=O)[C@H](CCN)NC(=O)[C@H]([C@@H](C)O)NC(=O)[C@@H](CC(C)C)NC(=O)[C@H](CCN)NC1=O)[C@@H](C)O [Lipopeptide F251] (HELM PEPTIDE1{[CCCCCCCC(=O)[*:2]].[Dab].T.[NC[C@H](N[*:1])C(=O)[*:2]].[Dab].[Dab].[dL].T.[Dab].[Dab].T}$PEPTIDE1,PEPTIDE1,5:R3-11:R2$$$V2.0)
value.qualifier: <
MIC K. pneumoniae FADDI-KP032, µg/mL: 0.125
//
molecule: CCCCCCCC(=O)N[C@@H](CCN)C(=O)N[C@H](C(=O)N[C@@H](CCN)C(=O)N[C@H]1CCNC(=O)[C@H]([C@@H](C)O)NC(=O)[C@H](CCN)NC(=O)[C@H](CCN)NC(=O)[C@H]([C@@H](C)O)NC(=O)[C@@H]([C@H](C)O)NC(=O)[C@H](CCN)NC1=O)[C@@H](C)O [Lipopeptide F230] (HELM PEPTIDE1{[CCCCCCCC(=O)[*:2]].[Dab].T.[Dab].[Dab].[Dab].[dT].T.[Dab].[Dab].T}$PEPTIDE1,PEPTIDE1,5:R3-11:R2$$$V2.0)
value.qualifier: =
MIC K. pneumoniae FADDI-KP032, µg/mL: 16
//
molecule: CC[C@@H]1NC(=O)[C@@H](CC(C)C)NC(=O)[C@H](CCN)NC(=O)[C@@H](NC(=O)[C@H](CN)NC(=O)[C@@H](NC(=O)[C@H](CCN)NC(=O)c2cc(Cl)cc(Cl)c2)[C@@H](C)O)CCNC(=O)[C@H]([C@@H](C)O)NC(=O)[C@H](CCN)NC(=O)[C@H](CCN)NC1=O [Lipopeptide F381] (HELM PEPTIDE1{[O=C(c1cc(Cl)cc(Cl)c1)[*:2]].[Dab].T.[NC[C@H](N[*:1])C(=O)[*:2]].[Dab].[Dab].[dL].[Abu].[Dab].[Dab].T}$PEPTIDE1,PEPTIDE1,5:R3-11:R2$$$V2.0)
value.qualifier: <
MIC K. pneumoniae FADDI-KP032, µg/mL: 0.125
//
molecule: CC[C@@H]1NC(=O)[C@@H](CC(C)C)NC(=O)[C@H](CCN)NC(=O)[C@@H](NC(=O)[C@H](CN)NC(=O)[C@@H](NC(=O)[C@H](CCN)NC(=O)c2ccc(F)cc2Cl)[C@@H](C)O)CCNC(=O)[C@H]([C@@H](C)O)NC(=O)[C@H](CCN)NC(=O)[C@H](CCN)NC1=O [Lipopeptide F449] (HELM PEPTIDE1{[O=C(c1ccc(F)cc1Cl)[*:2]].[Dab].T.[NC[C@H](N[*:1])C(=O)[*:2]].[Dab].[Dab].[dL].[Abu].[Dab].[Dab].T}$PEPTIDE1,PEPTIDE1,5:R3-11:R2$$$V2.0)
value.qualifier: =
MIC K. pneumoniae FADDI-KP032, µg/mL: 0.25
//
molecule: CCCCCCCC(=O)N[C@@H](CCN)C(=O)N[C@H](C(=O)N[C@@H](CCN)C(=O)N[C@H]1CCNC(=O)[C@H]([C@@H](C)O)NC(=O)[C@H](CCN)NC(=O)[C@H](CCN)NC(=O)[C@H](CO)NC(=O)[C@@H](CC(C)C)NC(=O)[C@H](CCN)NC1=O)[C@@H](C)O [Lipopeptide F227] (HELM PEPTIDE1{[CCCCCCCC(=O)[*:2]].[Dab].T.[Dab].[Dab].[Dab].[dL].S.[Dab].[Dab].T}$PEPTIDE1,PEPTIDE1,5:R3-11:R2$$$V2.0)
value.qualifier: =
MIC K. pneumoniae FADDI-KP032, µg/mL: 0.25

---

- Test system: Swiss mice, kidney
- protocol: Nephrotoxicity in mice (kidney histopathology)
- Type: in vivo, mouse
- run.conditions: mouse, in vivo
Residues, ends and D or L forms follow the SMILES beside them.
endpoint.label: Kidney histopathology, mice with the SQS score

compound: CC[C@@H]1NC(=O)[C@@H](CC(C)C)NC(=O)[C@H](CCN)NC(=O)[C@@H](NC(=O)[C@H](CN)NC(=O)[C@@H](NC(=O)[C@H](CCN)NC(=O)c2ccc(Cl)cc2)[C@@H](C)O)CCNC(=O)[C@H]([C@@H](C)O)NC(=O)[C@H](CCN)NC(=O)[C@H](CCN)NC1=O [Lipopeptide F378] (HELM PEPTIDE1{[O=C(c1ccc(Cl)cc1)[*:2]].[Dab].T.[NC[C@H](N[*:1])C(=O)[*:2]].[Dab].[Dab].[dL].[Abu].[Dab].[Dab].T}$PEPTIDE1,PEPTIDE1,5:R3-11:R2$$$V2.0)
recorded.measurement: 3/3
//
compound: CC[C@@H]1NC(=O)[C@@H](CC(C)C)NC(=O)[C@H](CCN)NC(=O)[C@@H](NC(=O)[C@H](CN)NC(=O)[C@@H](NC(=O)[C@H](CCN)NC(=O)c2ccc(C)cc2)[C@@H](C)O)CCNC(=O)[C@H]([C@@H](C)O)NC(=O)[C@H](CCN)NC(=O)[C@H](CCN)NC1=O [Lipopeptide F383] (HELM PEPTIDE1{[Cc1ccc(C(=O)[*:2])cc1].[Dab].T.[NC[C@H](N[*:1])C(=O)[*:2]].[Dab].[Dab].[dL].[Abu].[Dab].[Dab].T}$PEPTIDE1,PEPTIDE1,5:R3-11:R2$$$V2.0)
recorded.measurement: 3/3
//
compound: CCCCCCCCC(=O)N[C@@H](CCN)C(=O)N[C@H](C(=O)N[C@@H](CN)C(=O)N[C@H]1CCNC(=O)[C@H]([C@@H](C)O)NC(=O)[C@H](CCN)NC(=O)[C@H](CCN)NC(=O)[C@H](CC)NC(=O)[C@@H](CC(C)C)NC(=O)[C@H](CCN)NC1=O)[C@@H](C)O [Lipopeptide F314] (HELM PEPTIDE1{[CCCCCCCCC(=O)[*:2]].[Dab].T.[NC[C@H](N[*:1])C(=O)[*:2]].[Dab].[Dab].[dL].[Abu].[Dab].[Dab].T}$PEPTIDE1,PEPTIDE1,5:R3-11:R2$$$V2.0)
recorded.measurement: 3/3
//
compound: CC[C@@H]1NC(=O)[C@@H](CC(C)C)NC(=O)[C@H](CCN)NC(=O)[C@@H](NC(=O)[C@H](CN)NC(=O)[C@@H](NC(=O)[C@H](CCN)NC(=O)c2ccc(-c3ccccc3)cc2)[C@@H](C)O)CCNC(=O)[C@H]([C@@H](C)O)NC(=O)[C@H](CCN)NC(=O)[C@H](CCN)NC1=O [Lipopeptide F477] (HELM PEPTIDE1{[O=C(c1ccc(-c2ccccc2)cc1)[*:2]].[Dab].T.[NC[C@H](N[*:1])C(=O)[*:2]].[Dab].[Dab].[dL].[Abu].[Dab].[Dab].T}$PEPTIDE1,PEPTIDE1,5:R3-11:R2$$$V2.0)
recorded.measurement: 1/3
//
compound: CCCCCCCC(=O)N[C@@H](CCN)C(=O)N[C@H](C(=O)N[C@H](CN)C(=O)N[C@H]1CCNC(=O)[C@H]([C@@H](C)O)NC(=O)[C@H](CCN)NC(=O)[C@H](CCN)NC(=O)[C@H]([C@@H](C)O)NC(=O)[C@@H](CC(C)C)NC(=O)[C@H](CCN)NC1=O)[C@@H](C)O [Lipopeptide F300] (HELM PEPTIDE1{[CCCCCCCC(=O)[*:2]].[Dab].T.[NC[C@@H](N[*:1])C(=O)[*:2]].[Dab].[Dab].[dL].T.[Dab].[Dab].T}$PEPTIDE1,PEPTIDE1,5:R3-11:R2$$$V2.0)
recorded.measurement: 3/3
//
compound: CCCCCCCC(=O)N[C@@H](CCN)C(=O)N[C@H](C(=O)N[C@@H](CCN)C(=O)N[C@H]1CCNC(=O)[C@H]([C@@H](C)O)NC(=O)[C@H](CCN)NC(=O)[C@H](CCN)NC(=O)[C@H]([C@@H](C)O)NC(=O)[C@@H](Cc2ccccc2)NC(=O)[C@H](CCN)NC1=O)[C@@H](C)O [Lipopeptide F224] (HELM PEPTIDE1{[CCCCCCCC(=O)[*:2]].[Dab].T.[Dab].[Dab].[Dab].[dF].T.[Dab].[Dab].T}$PEPTIDE1,PEPTIDE1,5:R3-11:R2$$$V2.0)
recorded.measurement: 3/3
//
compound: CCCCCCCC(=O)N[C@@H](CCN)C(=O)N[C@H](C(=O)N[C@@H](CCCN)C(=O)N[C@H]1CCNC(=O)[C@H]([C@@H](C)O)NC(=O)[C@H](CCN)NC(=O)[C@H](CCN)NC(=O)[C@H]([C@@H](C)O)NC(=O)[C@@H](CC(C)C)NC(=O)[C@H](CCN)NC1=O)[C@@H](C)O [Lipopeptide F252] (HELM PEPTIDE1{[CCCCCCCC(=O)[*:2]].[Dab].T.[Orn].[Dab].[Dab].[dL].T.[Dab].[Dab].T}$PEPTIDE1,PEPTIDE1,5:R3-11:R2$$$V2.0)
recorded.measurement: 2/3
//
compound: CCCCCCCC(=O)N[C@@H](CCN)C(=O)N[C@H](C(=O)N[C@@H](CCN)C(=O)N[C@H]1CCNC(=O)[C@H]([C@@H](C)O)NC(=O)[C@H](CCN)NC(=O)[C@H](CCN)NC(=O)[C@H]([C@@H](C)O)NC(=O)[C@@H](C(C)C)NC(=O)[C@H](CCN)NC1=O)[C@@H](C)O [Lipopeptide F229] (HELM PEPTIDE1{[CCCCCCCC(=O)[*:2]].[Dab].T.[Dab].[Dab].[Dab].[dV].T.[Dab].[Dab].T}$PEPTIDE1,PEPTIDE1,5:R3-11:R2$$$V2.0)
recorded.measurement: 3/3
